tested on: Caco-2 cells; experiment: Uptake of BODIPY FL-C16 and BODIPY FL-C5 in Caco-2 cells; assay type: cell-based, human; conditions: Homo sapiens, Caco-2, read-out: IC50, inhibition of BODIPY FL-C16 uptake
reported endpoint: IC50 (µM)
Report as a plain number; the unit µM is understood.

Q: Quick check: IC50 of O=c1cc(-c2ccc([N+](=O)[O-])cc2)[nH]c2c(-c3ccc(Cl)cc3)c(Cc3ccccc3)nn12 [Grassofermata] ?
Ans: 13.5

----------
experiment: Grassofermata level in mouse plasma; format: in vivo, mice; conditions: male, C57BL/6, mouse, oral, 300 mg/kg
reported endpoint: concentration at 6 h (ng/mL)
Write the number in ng/mL without appending the unit.

Q: Need concentration at 6 h, item O=c1cc(-c2ccc([N+](=O)[O-])cc2)[nH]c2c(-c3ccc(Cl)cc3)c(Cc3ccccc3)nn12
Ans: 2900

----------
assay: Grassofermata level in mouse plasma; assay type: in vivo, mice; conditions: male, C57BL/6, mouse, oral, 300 mg/kg
reported endpoint: concentration at 2 h (ng/mL)
Report only the number, with the unit ng/mL understood.

Q: So what does the record say about concentration at 2 h for O=c1cc(-c2ccc([N+](=O)[O-])cc2)[nH]c2c(-c3ccc(Cl)cc3)c(Cc3ccccc3)nn12 ?
Ans: 3400
